Sourced from ChEMBL document CHEMBL5038656

experiment: Inhibition of Penicillium decumbens Alpha-L-rhamnosidase
readout: IC50 (µM)
Give the value, in units of µM, as a plain number.

Request the reported IC50 associated with O[C@@H]1[C@@H]2[C@@H](O)[C@H](O)[C@@H](O)CN2C[C@@H]1O 530

###

Entries with their measured pKi, system Lysosomal alpha-glucosidase (Homo sapiens, UniProt P10253):
Friendly reminder that pKi comes from taking -log10 of the concentration in mol/L.

Request the reported pKi associated with CCCCCC[C@]1(CO)NC[C@H](O)[C@@H](O)[C@@H]1O 8.21

Request the reported pKi associated with CCCCCCC[C@@]1(CO)NC[C@H](O)[C@@H](O)[C@@H]1O 5.60

Request the reported pKi associated with CCCCCCN1C[C@H](O)[C@@H](O)[C@H](O)[C@H]1CO 6.89

Request the reported pKi associated with CCCCCCC[C@]1(CO)NC[C@H](O)[C@@H](O)[C@@H]1O 8.33

Request the reported pKi associated with CCCC[C@]1(CO)NC[C@H](O)[C@@H](O)[C@@H]1O 7.43

Request the reported pKi associated with CCC[C@]1(CO)NC[C@H](O)[C@@H](O)[C@@H]1O 7.23

Request the reported pKi associated with CCCN1C[C@H](O)[C@@H](O)[C@H](O)[C@H]1CO 6.44
